test: Intrinsic clearance in human liver microsomes at 1 uM after 30 mins in presence of NADPH; format: ADME; conditions: read-out: CLH
So basically, if microsomal CLint at 1 µM comes in under 100 µL/min/mg it's satisfied, and if it's 100 µL/min/mg or more it's not satisfied.

molecule	assigned class
CC1CS(=O)(=O)CCN1C[C@H]1CN(S(=O)(=O)c2cccs2)CCN1c1ccc(C(C)(O)C(F)(F)F)cc1 (mixture of isomers)	not satisfied
CC(O)(c1ccc(N2CCN(S(=O)(=O)c3cccs3)C[C@@H]2CN2[C@H]3COC[C@H]2[C@H](O)C3)cc1)C(F)(F)F (mixture of isomers)	not satisfied
CCC#CC1CN(S(=O)(=O)c2ccc(N)nc2)CCN1c1ccc(C(O)(C(F)(F)F)C(F)(F)F)cc1 (racemic)	satisfied
CC(O)(c1ccc(N2CCN(S(=O)(=O)c3cccs3)C[C@@H]2CN2[C@H]3COC[C@H]2[C@@H](O)C3)cc1)C(F)(F)F (mixture of isomers)	not satisfied
CC(O)(c1ccc(N2CCN(S(=O)(=O)c3cccs3)C[C@@H]2CN2C3CCC2COC3)cc1)C(F)(F)F (mixture of isomers)	not satisfied
Nc1ccc(S(=O)(=O)N2CCN(c3ccc(C(O)(C(F)(F)F)C(F)(F)F)cc3)CC2)cn1	satisfied
CC(O)(c1ccc(N2CCN(S(=O)(=O)c3cccs3)C[C@@H]2CN2CC3(COC3)C2)cc1)C(F)(F)F (mixture of isomers)	satisfied
CC(C)(C)C#CC1CN(S(=O)(=O)c2ccc(N)nc2)CCN1c1ccc(C(O)(C(F)(F)F)C(F)(F)F)cc1 (racemic)	satisfied

Continue with the molecule presented below.
*Q* Does the reported microsomal CLint at 1 µM of Nc1ccc(S(=O)(=O)N2CCN(c3ccc(C(O)(C(F)(F)F)C(F)(F)F)cc3)C(C#CC3CC3)C2)cn1 (racemic) stay below 100 µL/min/mg?
*A* satisfied
